List of fold change (FC) values.
# Test system: DNA
# PROTOCOL_NOTES: Stabilization of 5'-FAM-TAT-AGA-TAT-AGA-TAT-TTT-ATA-TCT-ATA-TCT-ATA-3'-TAMRA DNA (unknown origin) assessed as reduction in change in melting temperature at 1:1 to 5:1 ligand to DNA ratio measured after 3 hrs by FRET-based assay relative to control
# Format: ADME, nucleic-acid assay

These recorded examples may help you get a feel for the data.
| LINE_NOTATION | VALUE_OBSERVED |
| --- | --- |
| CCN(CC)C(=O)c1cc2cc(NC(=O)c3cc(NC(=O)CCCOc4cc5c(cc4OC)C(=O)N4CCC[C@H]4C=N5)cn3C)ccc2s1 | 3 to 4 |
| CCN(CC)C(=O)c1cc2cc(NC(=O)c3cc(NC(=O)CCCOc4cc5c(cc4OC)C(=O)N4CCC[C@H]4C=N5)cn3C)ccc2o1 | 3 to 4 |

**Q:** Find the recorded fold change (FC) belonging to `COc1cc2c(cc1OCCCC(=O)Nc1cc(C(=O)Nc3ccc(-c4cc(C(=O)N5CCCCC5)n(C)c4)cc3)n(C)c1)N=C[C@@H]1CCCN1C2=O` and report it.
**A:** 3 to 4

* * *

# System: Enterococcus faecalis
# PROTOCOL_NOTES: Antibacterial activity against vancomycin resistant Enterococcus faecalis NCTC 12201 by microdilution broth method
# Type: functional
List of MIC values.

| LINE_NOTATION | VALUE_OBSERVED |
| --- | --- |
| COc1cc2c(cc1OCCCC(=O)Nc1cc(C(=O)Nc3ccc4sc(C(=O)N5CCSCC5)cc4c3)n(C)c1)N=C[C@@H]1CCCN1C2=O | ≤ 0.125 µg/mL |
| COc1cc2c(cc1OCCCC(=O)Nc1cc(C(=O)Nc3ccc(-c4cc(C(=O)N5CCOCC5)n(C)c4)cc3)n(C)c1)N=C[C@@H]1CCCN1C2=O | ≤ 0.125 µg/mL |

**Q:** Find the recorded MIC belonging to `COc1cc2c(cc1OCCCC(=O)Nc1cc(C(=O)Nc3ccc4sc(C(=O)N(C)C)cc4c3)n(C)c1)N=C[C@@H]1CCCN1C2=O` and report it.
**A:** 0.03 µg/mL

* * *

List of MIC values.
# System: Enterococcus faecalis
# PROTOCOL_NOTES: Antibacterial activity against vancomycin resistant Enterococcus faecalis NCTC 12201 by microdilution broth method
# Type: functional

These recorded examples may help you get a feel for the data.
| LINE_NOTATION | VALUE_OBSERVED |
| --- | --- |
| COc1cc2c(cc1OCCCC(=O)Nc1cc(C(=O)Nc3ccc4sc(C(=O)N5CCCCC5)cc4c3)n(C)c1)N=C[C@@H]1CCCN1C2=O | ≤ 0.125 µg/mL |
| CCN(CC)C(=O)c1cc2cc(NC(=O)c3cc(NC(=O)CCCOc4cc5c(cc4OC)C(=O)N4CCC[C@H]4C=N5)cn3C)ccc2o1 | ≤ 0.125 µg/mL |
| CCN(CC)C(=O)c1cc(-c2ccc(NC(=O)c3cc(NC(=O)CCCOc4cc5c(cc4OC)C(=O)N4CCC[C@H]4C=N5)cn3C)cc2)cn1C | 0.25 to 0.5 µg/mL |
| COc1cc2c(cc1OCCCC(=O)Nc1cc(C(=O)Nc3ccc(-c4cc(C(=O)N5CCSCC5)n(C)c4)cc3)n(C)c1)N=C[C@@H]1CCCN1C2=O | ≤ 0.03 µg/mL |
| COc1cc2c(cc1OCCCC(=O)Nc1cc(C(=O)Nc3ccc4oc(C(=O)N5CCSCC5)cc4c3)n(C)c1)N=C[C@@H]1CCCN1C2=O | 0.25 µg/mL |

# context switch: different compound, same MIC
**Q:** Find the recorded MIC belonging to `COC(=O)c1cc(NC(=O)c2cc(NC(=O)CCCOc3cc4c(cc3OC)C(=O)N3CCC[C@H]3C=N4)cn2C)cn1C` and report it.
**A:** 0.5 µg/mL

* * *

# PROTOCOL_NOTES: Selectivity ratio of cytotoxicity against human WI38 cells to MIC for Acinetobacter baumannii ATCC 17978
# Assay type: toxicity, cell-based
List of selectivity ratio values.
Answer field: number only, no words.

These recorded examples may help you get a feel for the data.
| LINE_NOTATION | selectivity ratio |
| --- | --- |
| CCN(CC)C(=O)c1cc2cc(NC(=O)c3cc(NC(=O)CCCOc4cc5c(cc4OC)C(=O)N4CCC[C@H]4C=N5)cn3C)ccc2o1 | 10 |
| COc1cc2c(cc1OCCCC(=O)Nc1cc(C(=O)Nc3ccc4sc(C(=O)N5CCCCC5)cc4c3)n(C)c1)N=C[C@@H]1CCCN1C2=O | 10 |

# context switch: different molecule, same selectivity ratio
**Q:** Find the recorded selectivity ratio belonging to `CCN(CC)C(=O)c1cc2cc(NC(=O)c3cc(NC(=O)CCCOc4cc5c(cc4OC)C(=O)N4CCC[C@H]4C=N5)cn3C)ccc2s1` and report it.
**A:** 10

* * *

# System: Enterococcus faecalis
# PROTOCOL_NOTES: Antibacterial activity against vancomycin sensitive Enterococcus faecalis NCTC 775 by microdilution broth method
# Format: functional
List of MIC values.

These recorded examples may help you get a feel for the data.
| LINE_NOTATION | SYSTEM_TESTED | VALUE_OBSERVED |
| --- | --- | --- |
| COc1cc2c(cc1OCCCC(=O)Nc1cc(C(=O)Nc3ccc4sc(C(=O)N5CCSCC5)cc4c3)n(C)c1)N=C[C@@H]1CCCN1C2=O | Enterococcus faecalis | ≤ 0.125 µg/mL |
| COc1cc2c(cc1OCCCC(=O)Nc1cc(C(=O)Nc3ccc(-c4cc(C(=O)N5CCSCC5)n(C)c4)cc3)n(C)c1)N=C[C@@H]1CCCN1C2=O | Enterococcus faecalis | ≤ 0.03 µg/mL |
| COc1cc2c(cc1OCCCC(=O)Nc1cc(C(=O)Nc3ccc4sc(C(=O)N5CCOCC5)cc4c3)n(C)c1)N=C[C@@H]1CCCN1C2=O | Enterococcus faecalis | ≤ 0.125 µg/mL |
| CCN(CC)C(=O)c1cc(-c2ccc(NC(=O)c3cc(NC(=O)CCCOc4cc5c(cc4OC)C(=O)N4CCC[C@H]4C=N5)cn3C)cc2)cn1C | Enterococcus faecalis | 0.5 µg/mL |
| CCN(CC)C(=O)c1cc2cc(NC(=O)c3cc(NC(=O)CCCOc4cc5c(cc4OC)C(=O)N4CCC[C@H]4C=N5)cn3C)ccc2o1 | Enterococcus faecalis | 0.25 µg/mL |

# context switch: different compound, same MIC
**Q:** Find the recorded MIC belonging to `COc1cc2c(cc1OCCCC(=O)Nc1cc(C(=O)Nc3ccc(-c4cc(C(=O)N(C)C)n(C)c4)cc3)n(C)c1)N=C[C@@H]1CCCN1C2=O` and report it.
**A:** ≤ 0.125 µg/mL

* * *

# PROTOCOL_NOTES: Selectivity ratio of cytotoxicity against human WI38 cells to MIC for methicillin resistant Staphylococcus aureus NCTC 13277
# Type: toxicity, cell-based
List of selectivity ratio values.
Answer field: number only, no words.

These recorded examples may help you get a feel for the data.
| LINE_NOTATION | selectivity ratio |
| --- | --- |
| CCN(CC)C(=O)c1cc(-c2ccc(NC(=O)c3cc(NC(=O)CCCOc4cc5c(cc4OC)C(=O)N4CCC[C@H]4C=N5)cn3C)cc2)cn1C | 100 |
| CCN(CC)C(=O)c1cc2cc(NC(=O)c3cc(NC(=O)CCCOc4cc5c(cc4OC)C(=O)N4CCC[C@H]4C=N5)cn3C)ccc2o1 | 100 |

**Q:** Find the recorded selectivity ratio belonging to `COc1cc2c(cc1OCCCC(=O)Nc1cc(C(=O)Nc3ccc4oc(C(=O)N(C)C)cc4c3)n(C)c1)N=C[C@@H]1CCCN1C2=O` and report it.
**A:** 100

* * *

# PROTOCOL_NOTES: Selectivity ratio of cytotoxicity against human WI38 cells to MIC for Acinetobacter baumannii ATCC 17978
# Assay type: toxicity, cell-based
QUANTITY_MEASURED: selectivity ratio
Answer field: number only, no words.

**Q:** Find the recorded selectivity ratio belonging to `COc1cc2c(cc1OCCCC(=O)Nc1cc(C(=O)Nc3ccc4sc(C(=O)N5CCOCC5)cc4c3)n(C)c1)N=C[C@@H]1CCCN1C2=O` and report it.
**A:** 10

**Q:** Find the recorded selectivity ratio belonging to `COc1cc2c(cc1OCCCC(=O)Nc1cc(C(=O)Nc3ccc4oc(C(=O)N5CCSCC5)cc4c3)n(C)c1)N=C[C@@H]1CCCN1C2=O` and report it.
**A:** 10

**Q:** Find the recorded selectivity ratio belonging to `COc1cc2c(cc1OCCCC(=O)Nc1cc(C(=O)Nc3ccc(-c4cc(C(=O)N5CCSCC5)n(C)c4)cc3)n(C)c1)N=C[C@@H]1CCCN1C2=O` and report it.
**A:** 10
